Just for reference, patent US20180282323A1 is where these values come from.

# test.details: log P by HPLC on reversed-phase column (EEC directive 79/831 Annex V.A8)
# Assay type: physicochemical
# recorded.conditions: HPLC on reversed-phase column (footnote a)
Entries and their log p values follow.
property.label: log p

> print(dat)
                                    compound  result
 1  CCOCC(=O)c1c([O-])n(Cc2cnc(Cl)s2)c2ccc(Cl)c[n+]12 [Example I-1-119]    1.96
 2  CCOCC(=O)c1c([O-])n(Cc2ccc(Cl)nc2)c2ccc(C)c[n+]12 [Example I-1-113]    1.66
 3  Cc1ccc[n+]2c(C(=O)CCl)c([O-])n(Cc3cnc(Cl)s3)c12 [Example I-1-081]    1.98
 4  COCC(=O)c1c([O-])n(Cc2ccc(C(F)(F)F)nc2)c2cccc[n+]12 [Example I-1-180]    1.49
 5  O=C(CCl)c1c([O-])n(Cc2ccc(C(F)(F)F)nc2)c2cccc[n+]12 [Example I-1-163]     1.9
 6  CC(C)(C)NC(=O)c1c([O-])n(Cc2cnc(Cl)s2)c2cccc[n+]12 [Example I-1-151]    2.39
 7  CCOCC(=O)c1c([O-])n(Cc2ccc(Cl)nc2)c2c(Cl)ccc[n+]12 [Example I-1-116]    1.78
 8  O=C(Cn1cnc(C(F)(F)F)c1)c1c([O-])n(Cc2cnc(Cl)s2)c2cccc[n+]12 [Example I-1-051]       2
 9  O=C(NCCc1ccc(Cl)cc1)c1c([O-])n(Cc2cnc(Cl)s2)c2cccc[n+]12 [Example I-1-139]       3
10  CCCNC(=O)c1c([O-])n(Cc2cnc(Cl)s2)c2cccc[n+]12 [Example I-1-129]    1.98
11  Cc1cccc2n(Cc3cnc(Cl)s3)c([O-])c(C(=O)NC3CC3)[n+]12 [Example I-1-190]    1.16

* * *

Entries and their efficacy values follow.
# System: Ctenocephalides felis
# test.details: Ctenocephalides felis in vitro contact test with adult cat fleas
# Format: in vivo
# recorded.conditions: application rate 5 μg/cm^2, after 48 h, adult cat fleas dead or moribund
property.label: efficacy (%)

> print(dat)
                                    molecule  numeric.value
 1  CCOCC(=O)c1c([O-])n(Cc2cnc(Cl)s2)c2cccc[n+]12 [Example I-1-032]            100
 2  O=C(NCC1CC1)c1c([O-])n(Cc2cnc(Cl)s2)c2cccc[n+]12 [Example I-1-143]            100
 3  CCCOCC(=O)c1c([O-])n(Cc2cnc(Cl)s2)c2cccc[n+]12 [Example I-1-033]             90
 4  O=C(NC1CC1)c1c([O-])n(Cc2cnc(Cl)s2)c2cccc[n+]12 [Example I-1-111]            100
 5  Cc1ccccc1NC(=O)c1c([O-])n(Cc2cnc(Cl)s2)c2cccc[n+]12 [Example I-1-239]            100
 6  CC(C)CNC(=O)c1c([O-])n(Cc2cnc(Cl)s2)c2cccc[n+]12 [Example I-1-147]             80
 7  COc1ccc[n+]2c(C(=O)NC3CC3)c([O-])n(Cc3cnc(Cl)s3)c12 [Example I-1-240]            100
 8  COCC(=O)c1c([O-])n(Cc2ccc(Cl)nc2)c2cccc[n+]12 [Example I-1-003]            100
 9  Cc1ccc(Cn2c([O-])c(C(=O)NC3CC3)[n+]3ccccc23)cn1 [Example I-1-243]            100
10  COCC(=O)c1c([O-])n(Cc2cnc(Cl)s2)c2c(C)ccc[n+]12 [Example I-1-082]            100

* * *

Entries and their efficacy (kill in %) values follow.
# Test system: Myzus persicae
# test.details: Myzus persicae spray test (bell pepper plants)
# Format: in vivo
# recorded.conditions: application rate 100 ppm, after 6 days
property.label: efficacy (kill in %)

> print(dat)
                                    compound  numeric.value
 1  O=C(Nc1c(F)cccc1F)c1c([O-])n(Cc2cnc(Cl)s2)c2cccc[n+]12             99
 2  CSc1cnn(CC(=O)c2c([O-])n(Cc3cnc(Cl)s3)c3cccc[n+]23)c1             80
 3  O=C(CCl)c1c([O-])n(Cc2cnc(Cl)s2)c2cccc[n+]12             90
 4  O=C(Cn1cc(C(F)(F)F)cn1)c1c([O-])n(Cc2cnc(Cl)s2)c2cccc[n+]12             95
 5  CCOCC(=O)c1c([O-])n(Cc2ccc(Cl)nc2)c2cccc(C)[n+]12             85
 6  O=C(NCC(F)(F)F)c1c([O-])n(Cc2cnc(Cl)s2)c2cccc[n+]12             95
 7  COc1cnn(CC(=O)c2c([O-])n(Cc3cnc(Cl)s3)c3cccc[n+]23)c1             85
 8  CC(c1ccc(Cl)nc1)n1c([O-])c(C(=O)NC2CC2)[n+]2ccccc12 (stereo not shown)             90
 9  O=C(NC1CC1)c1c([O-])n(Cc2ccc(Cl)nc2)c2cccc[n+]12            100
10  CCCOCC(=O)c1c([O-])n(Cc2cnc(Cl)s2)c2cccc[n+]12            100
11  CC(C)CNC(=O)c1c([O-])n(Cc2cnc(Cl)s2)c2cccc[n+]12            100
12  CCOCC(=O)c1c([O-])n(Cc2ccc(Cl)nc2)c2ccc(C)c[n+]12             95
13  O=C(Nc1ccccc1)c1c([O-])n(Cc2cnc(Cl)s2)c2cccc[n+]12            100
14  CCOCC(=O)c1c([O-])n(Cc2cnc(Cl)s2)c2cccc[n+]12            100
15  CC(=O)N(CC(=O)c1c([O-])n(Cc2cnc(Cl)s2)c2cccc[n+]12)C1CC1             95
16  COCC(=O)c1c([O-])n(Cc2cnc(Cl)c(Cl)c2)c2cccc[n+]12             95

* * *

# test.details: log P by HPLC on reversed-phase column (EEC directive 79/831 Annex V.A8)
# Format: physicochemical
# recorded.conditions: HPLC on reversed-phase column
Entries and their log p a) values follow.
property.label: log p a)

> print(dat)
                                    compound  numeric.value
 1  O=C(NCC(F)(F)F)c1c([O-])n(Cc2ccc(Cl)nc2)c2cccc[n+]12           1.98
 2  Cc1cccc(F)c1NC(=O)c1c([O-])n(Cc2cnc(Cl)s2)c2cccc[n+]12            3.1
 3  Cc1ccccc1NC(=O)c1c([O-])n(Cc2ccc(Cl)nc2)c2cccc[n+]12           2.73
 4  Cc1cccnc1NC(=O)c1c([O-])n(Cc2cnc(Cl)s2)c2cccc[n+]12           0.91
 5  Cc1ccc[n+]2c(C(=O)COC3CCCC3)c([O-])n(Cc3cnc(Cl)s3)c12           2.45
 6  Cc1ccc[n+]2c(C(=O)Nc3c(F)cccc3F)c([O-])n(C(C)c3ccc(Cl)nc3)c12 (racemic)           2.67
 7  Cc1ccc[n+]2c(C(=O)COC(C)(C)C)c([O-])n(Cc3cnc(Cl)s3)c12           2.12
 8  O=C(Nc1ncccc1Cl)c1c([O-])n(Cc2cnc(Cl)s2)c2cccc[n+]12           1.63
 9  Cc1ccc[n+]2c(C(=O)NC3(C#N)CC3)c([O-])n(Cc3ccc(Cl)nc3)c12           1.78
10  Cc1cnc(Cn2c([O-])c(C(=O)NCC(F)(F)F)[n+]3ccccc23)cn1           1.57
11  Cc1ccc[n+]2c(C(=O)Nc3c(F)cccc3F)c([O-])n(C(C)c3cnc(Cl)s3)c12 (stereo not drawn)           2.76
12  O=C(Nc1nccs1)c1c([O-])n(Cc2ccc(Cl)nc2)c2cccc[n+]12           1.93
13  N#Cc1cccc(Cl)c1NC(=O)c1c([O-])n(Cc2cnc(Cl)s2)c2cccc[n+]12           2.43
14  Cc1ccc[n+]2c(C(=O)NC(C)c3ccc(Cl)cc3)c([O-])n(Cc3cnc(Cl)s3)c12 (stereo not drawn)           3.46
15  CCNC(=O)c1c([O-])n(Cc2cnc(Cl)cn2)c2cccc[n+]12           1.51
16  Cc1ccc[n+]2c(C(=O)NC3(C#N)CCCCC3)c([O-])n(Cc3ccc(Cl)nc3)c12           2.62
17  Cc1ccc[n+]2c(C(=O)Nc3c(F)cccc3F)c([O-])n(Cc3cnc(Cl)s3)c12 [Example I-1-212]           2.73
18  O=C(Nc1ccccc1C(F)(F)F)c1c([O-])n(Cc2cnc(Cl)s2)c2cccc[n+]12           3.22
